Catalogue of variants with associated protein stability index
B1: TRIM55 (parent)
chain: YKSFSKEQQTMDNLEKQLICPICL

- Variants of: B1
- ASSAY_REMARKS: protein stability index of a GFP-peptide fusion (GPS, HEK-293T) (PSI 1-6); higher = more stable;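 also: lentivirally expressed fusions sorted by FACS into six bins by GFP to DsRed ratio, PSI derived from sequencing read proportions per bin multiplied by bin number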
- MEASUREMENT_CONTEXT: c terminus: a fixed tail appended
REPORTED_PROPERTY: protein stability index

1. YKSFSKEQQTMDNLEKQLICPICD [L24D]: 2
2. YKSFSKEQQTMDNLEKTLICPICL [Q17T]: 1.98
3. YKSFSKEIQTMDNLEKQLICPICL [Q8I]: 2.1
4. YKSFSKEQQTMDNLGKQLICPICL [E15G]: 2.41
5. YKSFSKEQQTMDNLEKQLICPIQL [C23Q]: 3.13
6. YKSFSKEEQTMDNLEKQLICPICL [Q8E]: 2.3
7. YKSFSKEQQTMDNLEKQDICPICL [L18D]: 2.98
8. YKSFSKEQQTMDNPEKQLICPICL [L14P]: 2.7
9. YKSFSKEQQTMDPLEKQLICPICL [N13P]: 2.03
10. YKSFSKEQQTMDNLEKQLICNICL [P21N]: 1.24
11. YKSFSKEQQTMDNLEKQLICPITL [C23T]: 2
12. YKSFSKEQQTMDVLEKQLICPICL [N13V]: 1.68
13. NKSFSKEQQTMDNLEKQLICPICL [Y1N]: 2.48
14. YKSFSKEQQTMDNLEKILICPICL [Q17I]: 1.65
15. YKSFSKEQQTMDNLEKQLKCPICL [I19K]: 2.55
16. YISFSKEQQTMDNLEKQLICPICL [K2I]: 1.56
17. YKSFAKEQQTMDNLEKQLICPICL [S5A]: 1.89
18. YKSVSKEQQTMDNLEKQLICPICL [F4V]: 2.24
19. YKSFYKEQQTMDNLEKQLICPICL [S5Y]: 2.26
20. YKSFSKFQQTMDNLEKQLICPICL [E7F]: 1.87
21. YKSFSKEQQTMDNVEKQLICPICL [L14V]: 2.23
22. YKSFSKEQQTMDNLEKQLICPIFL [C23F]: 2.04
23. YKSFSKEQQTMDNLEKFLICPICL [Q17F]: 2.59
24. YKSFSKEAQTMDNLEKQLICPICL [Q8A]: 2.65
25. YKSFSKRQQTMDNLEKQLICPICL [E7R]: 1.87
26. YKSFSKEQQTWDNLEKQLICPICL [M11W]: 1.55
